Where do the numbers come from? From patent US20250353835A1.

measurement-description: Pharmacokinetics in vivo in rats
Parameters: species or system SD rats
experimental-setup: SD, rat, plasma; 3 mg/kg intravenous injection in rats; read-out: Peak concentration (Cmax)
measurement-name: Cmax (ng/mL)

(A) CCOc1ccc(-c2ccc(NC(=O)N[C@H]3CC[C@H](C)CC3)cc2-c2nn[nH]n2)cn1 [Compound 71]
(B) CCOc1ccc(-c2c(F)cc(NC(=O)N3CCC(C(C)(C)C)CC3)cc2-c2nn[nH]n2)cn1 [Compound 8]
Between A and B , which one shows the smaller Cmax number? Let me know the label of the one you choose.
B

====

measurement-target: human B1R (Homo sapiens)
Sequence (P46663 whole entry): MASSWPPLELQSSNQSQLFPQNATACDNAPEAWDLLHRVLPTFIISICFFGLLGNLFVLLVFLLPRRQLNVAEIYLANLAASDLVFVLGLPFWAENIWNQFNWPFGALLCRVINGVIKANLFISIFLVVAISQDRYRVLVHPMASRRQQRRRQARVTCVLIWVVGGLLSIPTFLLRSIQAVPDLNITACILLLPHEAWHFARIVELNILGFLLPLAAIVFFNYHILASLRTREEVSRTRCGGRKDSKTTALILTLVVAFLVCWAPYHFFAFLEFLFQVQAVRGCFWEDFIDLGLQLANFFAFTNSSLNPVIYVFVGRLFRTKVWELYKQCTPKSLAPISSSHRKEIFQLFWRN
measurement-description: FLIPR calcium ion flux assay, inhibitory activity against human B1R
experimental-setup: HEK293 cells stably expressing human B1R; agonist [Lys-des-Arg9]-Bradykinin 4.6 nM (EC80); FLIPR method
measurement-name: IC50 (nM)

As a guide, the following entries are already answered.
compound | observed-measurement
CC(C)(C)C1CCN(C(=O)Nc2cc(F)c(C(=O)OC3CCCCC3)c(-c3nn[nH]n3)c2)CC1 | 29.6
COc1ccc(-c2ccc(NC(=O)N3CCC(C(F)(F)F)CC3)cc2-c2nn[nH]n2)cc1OC | 148
COc1ccc(-c2ccc(NC(=O)N3CCC(C(C)(C)C)CC3)cc2-c2nn[nH]n2)cc1C | 26.2

(P) Cc1ccc(NC(=O)c2ccc(NC(=O)N3CCC(C(C)(C)C)CC3)cc2-c2nn[nH]n2)nc1
(Q) CC(C)(C)C1CCN(C(=O)Nc2cc(F)c(-c3ccc(C(F)(F)F)nc3)c(-c3nn[nH]n3)c2)CC1
Determine, for P and Q , which has the greater value of IC50. Let me know the label of the one you choose.
P

(A) CC1CCN(C(=O)Nc2ccc(-c3ccc4c(cnn4C)c3)c(-c3nn[nH]n3)c2)CC1
(B) COc1ccc(-c2ccc(NC(=O)N3CCC(C)CC3)cc2-c2nn[nH]n2)cc1Cl
(C) COc1ccc(-c2ccc(NS(=O)(=O)N3CCC(C)CC3)cc2-c2nn[nH]n2)cc1OC
(D) COc1ccc(-c2ccc(NC(=O)N3CCC4CCOC4C3)cc2-c2nn[nH]n2)cc1OC (stereo not shown)
(E) CC(C)(C)C1CCN(C(=O)Nc2cc(F)c(C(=O)NC3CCCC3)c(-c3nn[nH]n3)c2)CC1
Put these in order: smallest IC50 first, largest last. Please reply with the labels ordered as requested. Many thanks.
A, B, E, C, D

(a) CCOC(=O)c1ccc(NC(=O)N2CCC(C(F)(F)F)CC2)cc1-c1nn[nH]n1
(b) CCOc1ccc(-c2c(F)cc(NC(=O)N3CCC(C(C)(C)C)CC3)cc2-c2nn[nH]n2)cn1
Between a and b , which one shows the smaller IC50 number? Let me know the label of the one you choose.
b

(I) CCOC(=O)c1ccc(NC(=O)N2CCC(C(C)(C)C)CC2)cc1-c1nn[nH]n1 [Compound 45]
(II) Cn1ncc2cc(-c3c(F)cc(NC(=O)N4CCC(C(F)(F)F)CC4)cc3-c3nn[nH]n3)ccc21
(III) CCOc1ccc(-c2ccc(NC(=O)N3CCC(C)CC3)cc2-c2nn[nH]n2)cn1
Put these in order: smallest IC50 first, largest last. Please reply with the labels ordered as requested. Many thanks.
II, I, III
